Reference source for all entries: paper PMC5018819

# STUDY SYSTEM: PfCK (Plasmodium falciparum)
# Construct: made in house
# ASSAY SUMMARY: Ki determination and mode of inhibition
# Format: biochemical
# SETUP CONDITIONS: read-out: Ki, PfCK, against Cho; mixed inhibition, approximate value
Documented Ki across a set of compounds

>>> endpoint_value("CN(C)c1cc[n+](Cc2ccc(CCCCc3ccc(C[n+]4ccc(N5CCCC5)cc4)cc3)cc2)cc1.[Br-].[Br-]")
"~35 µM"

Prompt: Provide value of Ki for this record tested with PfCK (Plasmodium falciparum): "CN(C)c1cc[n+](Cc2ccc(-c3ccc(C[n+]4ccc(N5CCCC5)cc4)cc3)cc2)cc1.[Br-].[Br-]"
Completion: ~35 µM

----------
# STUDY SYSTEM: PfCK (Plasmodium falciparum, UniProt Q8IM71)
# Construct: made in house
# Sequence (Q8IM71 1-440): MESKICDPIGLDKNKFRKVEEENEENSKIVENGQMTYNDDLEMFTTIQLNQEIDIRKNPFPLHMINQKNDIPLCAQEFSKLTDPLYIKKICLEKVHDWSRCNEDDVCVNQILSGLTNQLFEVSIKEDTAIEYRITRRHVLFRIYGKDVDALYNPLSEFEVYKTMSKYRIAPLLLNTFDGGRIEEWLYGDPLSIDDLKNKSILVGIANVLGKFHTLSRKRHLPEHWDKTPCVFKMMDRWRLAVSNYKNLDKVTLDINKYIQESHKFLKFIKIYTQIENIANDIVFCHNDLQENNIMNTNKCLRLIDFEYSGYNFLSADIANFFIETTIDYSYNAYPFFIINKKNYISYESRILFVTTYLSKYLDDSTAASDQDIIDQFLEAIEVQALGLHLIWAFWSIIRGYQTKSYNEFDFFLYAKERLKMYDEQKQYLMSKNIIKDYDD
# ASSAY SUMMARY: Ki determination and mode of inhibition
# Assay type: biochemical
# SETUP CONDITIONS: Etn as variable substrate; read-out: Ki, PfCK, Etn
Documented Ki across a set of compounds
Use µM as the unit, but write only the number.

>>> endpoint_value("CN(C)c1cc[n+](Cc2ccc(-c3ccc(C[n+]4ccc(N5CCCC5)cc4)cc3)cc2)cc1.[Br-].[Br-]")
4.1

Prompt: Query: Ki; subject: "CN(C)c1cc[n+](Cc2ccc(CCCCc3ccc(C[n+]4ccc(N5CCCC5)cc4)cc3)cc2)cc1.[Br-].[Br-]"
Completion: 4
